Tested on: SW480
TEST PROTOCOL: cell viability (CellTiter-Glo) relative to plate median (fraction of plate median); higher = more viable cells
CONDITION SET: 5 µM; treatment time 24 h; reporter: 7TFP
Binary call on cell viability with cut-off 1: strictly below means Y, and equality or higher means N.

- COMPOUND: "Cc1c2oc3c(C)ccc(C(=O)N[C@@H]4C(=O)N[C@H](C(C)C)C(=O)N5CCC[C@H]5C(=O)N(C)CC(=O)N(C)[C@@H](C(C)C)C(=O)O[C@@H]4C)c3nc-2c(C(=O)N[C@@H]2C(=O)N[C@H](C(C)C)C(=O)N3CCC[C@H]3C(=O)N(C)CC(=O)N(C)[C@@H](C(C)C)C(=O)O[C@@H]2C)c(N)c1=O"
  ASSIGNED CLASS: "N"
- COMPOUND: "CC1(C)[C@@H](OC(=O)CCC(=O)O)CC[C@]2(C)[C@H]3C(=O)C=C4[C@@H]5C[C@@](C)(C(=O)O)CC[C@]5(C)CC[C@@]4(C)[C@]3(C)CC[C@@H]12"
  ASSIGNED CLASS: "N"
- COMPOUND: "COc1cc(NS(=O)(=O)c2ccc(N)cc2)ncn1"
  ASSIGNED CLASS: "Y"
- COMPOUND: "C[C@]12CCC(=O)C=C1C=C[C@@H]1[C@@H]2CC[C@@]2(C)[C@H]1CC[C@@]21CCC(=O)O1"
  ASSIGNED CLASS: "Y"
- COMPOUND: "O=C1NC(Cc2ccc(O)cc2)C(=O)N2CCCC12 (centres undefined) [Cyclo(tyrosylprolyl)]"
  ASSIGNED CLASS: "Y"

Next compound, please.
Task: Item CO[C@H]1/C=C/O[C@@]2(C)Oc3c(C)c(O)c4c(O)c(c(/C=N/N5CCN(C)CC5)c(O)c4c3C2=O)NC(=O)/C(C)=C\C=C\[C@H](C)[C@H](O)[C@@H](C)[C@@H](O)[C@@H](C)[C@H](OC(C)=O)[C@@H]1C : cell viability beneath 1, strictly?
Result: N

###

System: DLD1
TEST PROTOCOL: TCF/Wnt firefly luciferase reporter signal relative to plate median (fraction of plate median); higher = higher Wnt reporter signal
CONDITION SET: 5 µM; treatment time 24 h; reporter: 7TFP
The entries below are paired with their reported TCF/Wnt firefly luciferase reporter signal.
Number, no unit, nothing else.

As a guide, the following entries are already answered.
- COMPOUND: "C/C=C(/C(=C/C)c1ccc(O)cc1)c1ccc(O)cc1"
  ASSAYED TARGET: "DLD1"
  NUMERIC RESULT: 1.07
- COMPOUND: "Nc1nccs1"
  ASSAYED TARGET: "DLD1"
  NUMERIC RESULT: 1.06
- COMPOUND: "COC(=O)C[C@H]1C(C)(C)[C@@H](O)[C@@H]2CC3=C4C=C(OC)O[C@@H](c5ccoc5)[C@]4(C)CCC3[C@@]1(C)C2=O (stereo partly drawn) [3-DEOXO-3beta-HYDROXYMEXICANOLIDE 16-ENOL ETHER]"
  ASSAYED TARGET: "DLD1"
  NUMERIC RESULT: 0.946
- COMPOUND: "NC(=O)CC[C@H](N)C(=O)O"
  ASSAYED TARGET: "DLD1"
  NUMERIC RESULT: 1.02

Query compound follows.
Task: Need TCF/Wnt firefly luciferase reporter signal of CC(=O)Oc1ccc2c(c1OC(C)=O)OCC1(O)Cc3c(cc(OC(C)=O)c(OC(C)=O)c3OC(C)=O)C21 (stereo not given) , thanks.
Result: 0.939
